Molecular target: T1, GST-AtGRP8-RQ (Arabidopsis thaliana, UniProt Q03251 1-169, R47Q)
T1 sequence: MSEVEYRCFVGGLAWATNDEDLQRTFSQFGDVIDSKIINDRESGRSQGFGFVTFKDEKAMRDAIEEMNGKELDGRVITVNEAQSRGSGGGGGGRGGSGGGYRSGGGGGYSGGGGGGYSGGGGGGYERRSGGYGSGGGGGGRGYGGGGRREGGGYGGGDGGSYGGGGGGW
Assay: EMSA

- BINDER: "GUUUUUGGUUUAGAUUUGGUUUUGUGU (ssRNA) [8-UTR_WT]"
  Kd, µM: 1.31
- BINDER: "AUUUUGUUCUGGUUCUGCUUUAGAUUUGAUCU (ssRNA) [7-UTR_WT]"
  Kd, µM: 3.22
- BINDER: "CUUCCACGAUUGUUUUUGCUGAUGUGU (ssRNA) [8-intron_WT]"
  Kd, µM: 22.9
- BINDER: "GUUCAGUUUUGUUGGAUUGUUUUGCUGAUCUG (ssRNA) [7-intron_WT]"
  Kd, µM: 3.59
